// values below are reported 229E Inhibition rate
- System: HCoV-229E
- Set-up: species or system Huh-7; HTS, protection from HCoV-229E induced cell death, luminescent cell viability (CellCounting-Lite 2.0), inhibition rate
- condition_context: 24 h, 10 µM; inhibitor
Quick note: give the figure in %, leave out the unit.

Some compounds with known 229E Inhibition rate results, for comparison:
**Query** Using the record for N#C[C@@H](O[C@@H]1O[C@H](CO[C@@H]2O[C@H](CO)[C@@H](O)[C@H](O)[C@H]2O)[C@@H](O)[C@H](O)[C@H]1O)c1ccccc1 , report its 229E Inhibition rate.
**Result** 63.2

**Query** State the recorded 229E Inhibition rate for this entry: Cc1nccc2c1[nH]c1ccccc12
**Result** 0

New cases:
**Query** Quick check: 229E Inhibition rate of CC1=C2[C@H]3OC(=O)[C@@H](C)[C@@H]3CC[C@@]2(C)C=CC1=O ?
**Result** 22.7

----------
- Tested on: HCoV-229E
- Design: species or system Huh-7; HTS, protection from HCoV-229E induced cell death, luminescent cell viability (CellCounting-Lite 2.0), inhibition rate
- condition_context: 24 h, 10 µM; inhibitor
Documented 229E Inhibition rate across a set of molecules
The reply should contain only the number, in %.

For orientation, consider the following solved cases.
**Query** Fill in the blank: the reported 229E Inhibition rate of CC1=C2C(=CO[C@H](C)[C@H]2C)C(O)=C(C(=O)O)C1=O is ____.
**Result** 12

**Query** Data request, read-out 229E Inhibition rate, for COc1ccc2c(c1OC)C(=O)O[C@@H]2[C@H]1c2cc3c(cc2CCN1C)OCO3 [Hydrastine]
**Result** 28.1

**Query** 229E Inhibition rate for C=C[C@]12CN(C)[C@@H]3[C@H]4CO[C@H](C[C@H]41)[C@]1(C(=O)Nc4ccccc41)[C@@H]32 ?
**Result** 21.7

**Query** Requested read-out: 229E Inhibition rate. Entry: CC(C)CCC(=O)c1ccoc1
**Result** 9.1

**Query** Need 229E Inhibition rate, item C/C=C\c1cc(OC)c(OC)cc1OC
**Result** 28.9

New cases:
**Query** Data request, read-out 229E Inhibition rate, for CCCCc1ccc(C(=O)O)nc1
**Result** 12.7

**Query** 229E Inhibition rate for C[C@H]1CC[C@@H]2N(C1)C[C@H]1[C@@H]3C[C@H]4[C@@H](CC(=O)[C@H]5C[C@@H](O)CC[C@@]54C)[C@@H]3CC[C@H]1[C@]2(C)O ?
**Result** 43.3

**Query** Sample C/C=C/c1cc(OC)c(OC)cc1OC — what was its 229E Inhibition rate?
**Result** 14.4

----------
- Test system: HCoV-229E
- Set-up: species or system Huh-7; HTS, protection from HCoV-229E induced cell death, luminescent cell viability (CellCounting-Lite 2.0), inhibition rate
- condition_context: 24 h, 10 µM; inhibitor
measured_parameter: 229E Inhibition rate (%)
Please state the figure in %; there is no need to write the unit.

**Query** # get_value(readout= 229E Inhibition rate, system= HCoV-229E) for CC(C)C1=CC(=O)[C@@](C)([C@H]2[C@H](O)C[C@@]3(C)[C@@H]4CC=C5[C@@H](CC[C@@H](O[C@@H]6OC[C@@H](O)[C@H](O)[C@H]6O[C@@H]6O[C@@H](C)[C@H](O)[C@@H](O)[C@H]6O)C5(C)C)[C@]4(C)C(=O)C[C@]23C)O1
**Result** 0

// below: 229E Inhibition rate requested for another compound
**Query** HCoV-229E / 229E Inhibition rate / CC(=O)O[C@H]1[C@H]2O[C@]23[C@@H]2CC[C@]4(O)C[C@@H](O)CC[C@]4(C)[C@H]2CC[C@]3(C)[C@H]1c1ccc(=O)oc1 : value?
**Result** 9.3
